species: Rattus norvegicus; assay: Open TG-GATES - Regimen: Daily Repeat; assay type: toxicity, organism-based, Sprague-Dawley; design: regimen Daily Repeat, gender Male, age 6 weeks; conditions: in vivo, po, 100 mg/kg, […], tissue Plasma, route gavage, dose level Low, time 28 day
Reported values of BUN for individual entries
observed property: BUN (mg/dL)

1. CCOC(=O)CCC(=O)O[C@H]1[C@H](O[C@@H]2[C@@H](C)[C@H](O[C@H]3C[C@@](C)(OC)[C@@H](O)[C@H](C)O3)[C@@H](C)C(=O)O[C@H](CC)[C@@](C)(O)[C@H](O)[C@@H](C)C(=O)[C@H](C)C[C@@]2(C)O)O[C@H](C)C[C@@H]1N(C)C [ERYTHROMYCIN ETHYLSUCCINATE]; 19.2
2. CCOc1ccc(NC(=O)CC(C)O)cc1 (stereo not given) [BUCETIN]; 15.8
3. COc1ccc2[nH]c([S+]([O-])Cc3ncc(C)c(OC)c3C)nc2c1 (stereo not given) [OMEPRAZOLE]; 15.4
4. COC1=CC(=O)C[C@@H](C)[C@]12Oc1c(Cl)c(OC)cc(OC)c1C2=O [GRISEOFULVIN]; 16
5. NC(N)=Nc1nc(CSCCC(N)=NS(N)(=O)=O)cs1 [FAMOTIDINE]; 15.8
